test system: PPARg:RXRa DBDmut IVT, anti-RXR (DBD mutation: RXRa K156A/R161A, NR concentration 270 nM, RXRa partner concentration 90 nM); assay: PBM binding z-score (relative to random genomic background probes); higher = stronger binding; sequences stand for … in GC…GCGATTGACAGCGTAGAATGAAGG
# if value of PBM binding z-score reaches 2, tag fulfilled; if it stays below, tag not fulfilled

- macromolecule sequence: "TCTTGTAGATCCAAGGTTAAGAAAGCCGAAGCCT"
  label: "not fulfilled"
- macromolecule sequence: "GGAACGAGGGCATTCGAGTTGCTAGCATGGCGAT"
  label: "fulfilled"
- macromolecule sequence: "ACTAGCAGGGCAAGGGTCACTCAAGATTAGTCCG"
  label: "fulfilled"
- macromolecule sequence: "ATATGTAGGTTACATCCGGGTCATTCAAGCTATG"
  label: "fulfilled"
- macromolecule sequence: "CCAGACAAGTGAAAGGTAACTCAGTCTGGTACGC"
  label: "not fulfilled"
- macromolecule sequence: "AGTCAAAGTTCACTGGGTAACGTAAGATTCAGCT"
  label: "fulfilled"
- macromolecule sequence: "TAGCCTACGTCATTGGGCCAGTATAGTACGCATC"
  label: "not fulfilled"
- macromolecule sequence: "CACGAAAGGTCGGTTGAGGTGAGTATACGGATAA"
  label: "not fulfilled"
- macromolecule sequence: "ATATGTAGGTTAAGGGTCATTCATGTTGGTTCGC"
  label: "fulfilled"
- macromolecule sequence: "GCATATAGGTAATACAAGGTGAAACTCCGATTGT"
  label: "fulfilled"

Asked: Check the entry `TAGCCTAGGTCATGCGGGCGAGTATAGTGTCGGC` : does PBM binding z-score equal or exceed 2?
Given back: not fulfilled

Asked: Check the entry `CCTAGCAGGCAAATCTGGGTCACTCAAGGCTTGA` : does PBM binding z-score equal or exceed 2?
Given back: fulfilled

* * *

test system: LXRb:RXRa (NR concentration 270 nM, RXRa partner concentration 90 nM); assay: PBM binding z-score (relative to random genomic background probes); higher = stronger binding; sequences stand for … in GC…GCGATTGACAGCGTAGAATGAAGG
# if value of PBM binding z-score reaches 2, tag condition met; if it stays below, tag condition not met

- macromolecule sequence: "TCTATTAGTTGAAGGGCGACCGACGAGTCCGTTT"
  target of assay: "LXRb:RXRa (NR concentration 270 nM, RXRa partner concentration 90 nM)"
  label: "condition not met"

Asked: Check the entry `CCTAACGGGTCACTCCAGGTTATAGCATCGGAGT` : does PBM binding z-score equal or exceed 2?
Given back: condition met

Asked: Check the entry `GCTGCTAGGTCAGCTTGGTCAGCTAACGGGTACG` : does PBM binding z-score equal or exceed 2?
Given back: condition not met

Asked: Check the entry `CGAACTAGGTCAGAACAGGACACTGAAGGATGAT` : does PBM binding z-score equal or exceed 2?
Given back: condition not met

Asked: Check the entry `TCGAGTAGGTTAGGGGCATTCATAATGGCGTCGA` : does PBM binding z-score equal or exceed 2?
Given back: condition not met

Asked: Check the entry `CCTACTGGGGCAGAAAGGTTACCATACCATCCGG` : does PBM binding z-score equal or exceed 2?
Given back: condition not met

Asked: Check the entry `ATATGTAGGTTAGCTGGGATCATTCAGACTAGGC` : does PBM binding z-score equal or exceed 2?
Given back: condition not met

Asked: Check the entry `CAAACTAGGTCAAGGTCCAAGTCGGTTTGTGCCA` : does PBM binding z-score equal or exceed 2?
Given back: condition not met

Asked: Check the entry `CCTACTGGGCCATTCAGAGTTCATTGATCATATG` : does PBM binding z-score equal or exceed 2?
Given back: condition not met

Asked: Check the entry `CGAACTAGGTCAAGGACAGTGAATCTCCGCACGC` : does PBM binding z-score equal or exceed 2?
Given back: condition not met

Asked: Check the entry `TATACAGGGTCAAAGGCGAGAGTACGAATGTCGA` : does PBM binding z-score equal or exceed 2?
Given back: condition met

This collection of values is drawn from the supplement of paper PMC6555819.
